# Test system: ISC-enriched organoids
# assay_remarks: Primary screen, 384-well 2.5-D organoid differentiation (ENR+CD, 6 days): basal lysozyme secretion (LYZ.NS)
# Type: cell-based, murine
# assay_conditions: Dose 0.40 uM; primary screen, vs plate median
# strict inequality: Dose.FC.LYZ.NS (log 2 fold change) < 0.04 yields satisfied, everything else yields not satisfied

A selection of reference data follows.
| entry_smiles | tested_on | answer_label |
| --- | --- | --- |
| O=[N+]([O-])c1ccc2c(c1)S(=O)(=O)C=C2 | ISC-enriched organoids | satisfied |
| O=C1NC(=O)C(c2ccccc2[N+](=O)[O-])=C1Nc1ccc(O)c(Cl)c1 | ISC-enriched organoids | satisfied |
| O=C1NC(=O)/C(=C/c2cccc(C(F)(F)F)c2)S1 | ISC-enriched organoids | satisfied |
| O=C(NNc1nc2cc(F)ccc2n2cccc12)c1cnccn1 | ISC-enriched organoids | satisfied |
| Cc1ccc(S(=O)(=O)Cc2nc(-c3ccc(C(=O)NCc4cccnc4)cc3)oc2C)cc1 | ISC-enriched organoids | satisfied |

Quick check: Dose.FC.LYZ.NS (log 2 fold change) of `O=C(Nc1ccccc1-c1cn2c(CN3CCNCC3)csc2n1)c1cnc2ccccc2n1` under 0.04?
not satisfied

Strictly below 0.04 in Dose.FC.LYZ.NS (log 2 fold change)? `CO[C@H]1C[C@@H]2CC[C@@H](C)[C@@](O)(O2)C(=O)C(=O)N2CCCC[C@H]2C(=O)O[C@H]([C@H](C)C[C@@H]2CC[C@@H](OP(C)(C)=O)[C@H](OC)C2)CC(=O)[C@H](C)/C=C(\C)[C@@H](O)[C@@H](OC)C(=O)[C@H](C)C[C@H](C)/C=C/C=C/C=C/1C`
not satisfied

Hello, is Dose.FC.LYZ.NS (log 2 fold change) of the following compound strictly smaller than 0.04? `CNC(=O)c1ccc2cc([C@@]3(O)CCn4cncc43)ccc2c1`
not satisfied

Dear reviewer, please state whether `Cc1cn([C@H]2C=C[C@@H](CO)O2)c(=O)[nH]c1=O` has Dose.FC.LYZ.NS (log 2 fold change) strictly beneath 0.04.
satisfied

====

# Test system: ISC-enriched organoids
# assay_remarks: Primary screen, 384-well 2.5-D organoid differentiation (ENR+CD, 6 days, Target Selective Inhibitor Library, vs whole-plate median): ATP (CellTiter-Glo 3D, CTG)
# assay_conditions: Dose 0.08 uM; ENR+CD, 6 days; FC vs plate median
value_type: Dose.FC.CTG (log 2 fold change)
Report the figure in log 2 fold change without appending any unit label.

The examples below pair each entry with its known result.
| compound | Dose.FC.CTG (log 2 fold change) |
| --- | --- |
| Nc1ncnc2n[nH]c(Nc3ccc(F)cc3)c12 [CGP57380] | 0.108 |
| CCC(CC)CC1(C(=O)Nc2ccccc2SC(=O)C(C)C)CCCCC1 [Dalcetrapib (JTT-705, RO4607381)] | 0.112 |
| O=c1[nH]c2ccc(Cl)cc2c(N[C@@H]2CN3CCC2CC3)c1-c1nc2ccccc2[nH]1 [CHIR-124] | −0.256 |

Then there is this compound:
Documented Dose.FC.CTG of C[C@]12C=CC(=O)N[C@@H]1CC[C@@H]1[C@@H]2CC[C@]2(C)[C@@H](C(=O)Nc3cc(C(F)(F)F)ccc3C(F)(F)F)CC[C@@H]12 [Dutasteride] : 0.057

====

# System: ISC-enriched organoids
# assay_remarks: Primary screen, 384-well 2.5-D organoid differentiation (ENR+CD, 6 days): basal lysozyme secretion (LYZ.NS)
# Assay type: cell-based, murine
# assay_conditions: dose 0.40 uM; vs plate median
Everything with Dose.FC.LYZ.NS (log 2 fold change, basal lysozyme secretion) lower than -0.006 is N; everything else, including exactly -0.006, is Y.

| compound | answer_label |
| --- | --- |
| O=C(O[C@H]1C[C@H]2CC[C@@H](C1)[N+]21CCCC1)C(O)(c1ccccc1)c1ccccc1 [Trospium chloride] | Y |

Dose.FC.LYZ.NS (log 2 fold change, basal lysozyme secretion) >= -0.006 for `COc1cc2c(Nc3ccc(NC(=O)c4ccccc4)cc3)ncnc2cc1OCCCN1CCOCC1` ?
Y

Dose.FC.LYZ.NS (log 2 fold change, basal lysozyme secretion) >= -0.006 for `N#C[C@@H]1CCCN1C(=O)CNC12CC3CC(CC(O)(C3)C1)C2` ?
Y

====

# System: ISC-enriched organoids
# assay_remarks: Primary screen, 384-well 2.5-D organoid differentiation (ENR+CD, 6 days): basal lysozyme secretion (LYZ.NS)
# Format: cell-based, murine
# assay_conditions: strictly standardized mean difference; primary screen; 1st of the 4 dose lines of the treatment (dose not given)
Where a name gives a salt, the structure may show the parent alone.
Field: label. Allowed values: met (SSMD.LYZ.NS < 0.3) or not met (SSMD.LYZ.NS >= 0.3).

Solved cases below.
| compound | answer_label |
| --- | --- |
| O=C(c1cn(Cc2cncn2Cc2ccc(Br)cc2)cc1-c1cccc2ccccc12)N1CCOCC1 [LB42708] | met |
| CC12CC3CC(C)(C1)CC(N)(C3)C2 [Memantine HCl] | not met |

I wonder whether O=C(C[S+]([O-])Cc1ccco1)NC/C=C\COc1cc(CN2CCCCC2)ccn1 (stereo not shown) [Lafutidine] has SSMD.LYZ.NS below 0.3. Can you tell?
met

is_below(SSMD.LYZ.NS, 0.3) for Cc1noc(-c2ccc(CSCCC(=O)O)cc2)c1NC(=O)OC(C)c1ccccc1Cl (stereo not shown) [Ki16425] ?
met

Could you please tell me whether SSMD.LYZ.NS recorded for O=C(/C=C\n1cnc(-c2cc(C(F)(F)F)cc(C(F)(F)F)c2)n1)NNc1cnccn1 [KPT-330] is less than 0.3?
not met

Record COc1cc(-n2c(=S)[nH]c3ccccc3c2=O)c(Cl)cc1Cl [Mdivi-1] : is its SSMD.LYZ.NS strictly below 0.3?
not met

Could you please tell me whether SSMD.LYZ.NS recorded for Cc1ccc(NCCCc2ccccc2)c(N)c1 [JSH-23] is less than 0.3?
not met

# strict comparison: is reported SSMD.LYZ.NS < 0.3? input = N#Cc1ccc(C(c2ccc(C#N)cc2)n2cncn2)cc1 [Letrozole]
not met

====

# Tested on: ISC-enriched organoids
# assay_remarks: Primary screen, 384-well 2.5-D organoid differentiation (ENR+CD, 6 days): basal lysozyme secretion (LYZ.NS)
# Type: cell-based, murine
# assay_conditions: Dose 10.00 uM; primary screen
value_type: Z.LYZ.NS (standard z score)
Give only the figure.

Worked set:
| compound | recorded_result |
| --- | --- |
| O=C1NC(=O)C(c2ccccc2[N+](=O)[O-])=C1Nc1ccc(O)c(Cl)c1 | −0.136 |
| Oc1ccc(Nc2nc(-c3ccc(Cl)cc3)cs2)cc1 | −1.362 |
| CO[C@H]1C[C@@H]2CC[C@@H](C)[C@@](O)(O2)C(=O)C(=O)N2CCCC[C@H]2C(=O)O[C@H]([C@H](C)C[C@@H]2CC[C@@H](OP(C)(C)=O)[C@H](OC)C2)CC(=O)[C@H](C)/C=C(\C)[C@@H](O)[C@@H](OC)C(=O)[C@H](C)C[C@H](C)/C=C/C=C/C=C/1C | 0.237 |

Z.LYZ.NS (standard z score) in this record for `COc1cc(OC)c(/C=C/S(=O)(=O)Cc2ccc(OC)c(NCC(=O)O)c2)c(OC)c1` : −2.107

What the record says about Nc1ccc(C(=O)[O-])c(O)c1.[Na+] [Sodium 4-Aminosalicylate] : Z.LYZ.NS (standard z score) is 0.796

Value of Z.LYZ.NS (standard z score) reported for the compound `N#CSc1cc(SC#N)c(N)nc1N` is −1.687

Record summary for CN1CCC(CNc2ccc3ncc(-c4cccc(OC(F)(F)F)c4)n3n2)CC1 [SGI-1776free base] : reported Z.LYZ.NS (standard z score) = −1.784

====

# System: ISC-enriched organoids
# assay_remarks: Primary screen, 384-well 2.5-D organoid differentiation (ENR+CD, 6 days): basal lysozyme secretion (LYZ.NS)
# Format: cell-based, murine
# assay_conditions: Dose 2.00 uM; primary screen, standard z score
# Excerpt: High-throughput screening.
Catalogue of compounds with associated Z.LYZ.NS
No unit in the answer, please; the number alone is enough.

Please review the entries below; each comes with its answer.
| compound | recorded_result |
| --- | --- |
| O=C1[C@H](Cc2ccc(O)cc2)N2C(=O)CCN(C(=O)NCc3ccccc3)[C@H]2CN1Cc1cccc2ccccc12 [ICG-001] | 0.396 |
| COc1ccc2c(c1)c(C1=C(c3c[nH]c4ccccc34)C(=O)NC1=O)cn2CCCN(C)C [Go 6983] | 0.791 |
| COc1cc(-n2c(=S)[nH]c3ccccc3c2=O)c(Cl)cc1Cl [Mdivi-1] | −0.194 |

Lookup result for CC1=C(C(=O)Nc2cc3cn[nH]c3cc2F)C(c2ccc(C(F)(F)F)cc2)CC(=O)N1 (stereo not shown) [GSK429286A] ; measured Z.LYZ.NS: 1.222

Value source: patent US20230398130A1
